target: RBA2 (rice bran lectin 2) (Oryza sativa, UniProt Q0JF21); construct: gene Os04g0173800; noncovalent homodimer of 12-kDa subunits, 25 kDa; experiment: hemagglutination inhibition (rabbit erythrocytes); type: biochemical; details: pH 7.5, room temperature, 2-fold serial dilution
Sequence (Q0JF21 123-201): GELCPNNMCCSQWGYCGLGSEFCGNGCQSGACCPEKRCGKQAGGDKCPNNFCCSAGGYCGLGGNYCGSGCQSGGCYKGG
reported metric: RBA2 (mM)

compound="N[C@H]1C(O)O[C@H](CO)[C@@H](O)[C@@H]1O (stereo partly drawn) [D-Glucosamine]" reported_metric=RBA2 result_number=3.1

(A) CC(=O)N[C@H]1[C@H](O[C@H]2[C@H](O)[C@@H](NC(C)=O)C(O)O[C@@H]2CO)O[C@H](CO)[C@@H](O)[C@@H]1O (stereo partly shown) [Di-N-acetylchitobiose]
(B) N[C@H]1C(O)O[C@H](CO)[C@H](O)[C@@H]1O (stereo partly drawn) [D-Galactosamine]
(C) CC(=O)N[C@H]1C(O)O[C@H](CO)[C@H](O)[C@@H]1O (stereo partly drawn) [N-Acetyl D-galactosamine]
Rank entries according to their RBA2, from the largest number down. # output: labels, in the requested order
C, A, B
